# credit: patent US10130615B2

Molecular target: μ-opioid receptor (Homo sapiens, UniProt P35372)
Sequence (P35372 whole entry, species assumed): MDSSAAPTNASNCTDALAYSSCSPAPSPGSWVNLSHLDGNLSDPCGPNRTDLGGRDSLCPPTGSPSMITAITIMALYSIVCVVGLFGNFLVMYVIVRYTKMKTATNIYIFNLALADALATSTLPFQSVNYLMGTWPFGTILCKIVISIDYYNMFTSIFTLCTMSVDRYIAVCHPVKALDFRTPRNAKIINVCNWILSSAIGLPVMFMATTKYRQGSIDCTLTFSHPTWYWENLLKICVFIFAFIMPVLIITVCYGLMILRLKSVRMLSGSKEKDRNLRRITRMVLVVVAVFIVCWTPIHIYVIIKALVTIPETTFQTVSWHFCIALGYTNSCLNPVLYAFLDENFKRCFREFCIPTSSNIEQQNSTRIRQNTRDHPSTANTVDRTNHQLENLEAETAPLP
Assay: μ-opioid receptor GTPγS functional assay, U2OS cells
Conditions: read-out: GTPγS μ Emax
measurementType: Emax (%)
Response body: numeric value in %, unit text excluded.

Below, each entry is followed by its recorded Emax result.
- chemicalString: "COc1ccc2c(c1)[C@]1(CCNCCc3ccc(S(N)(=O)=O)cc3)CCN(C)[C@H](C2)[C@@H]1C"
  targetDesc: "μ-opioid receptor (Homo sapiens, UniProt P35372)"
  units: "%"
  Emax: 76.7
- chemicalString: "C[C@H]1[C@H]2Cc3ccc(O)cc3[C@]1(CCN1CCC(N(C3CC3)S(=O)(=O)c3ccccc3)CC1)CCN2C"
  targetDesc: "μ-opioid receptor (Homo sapiens, UniProt P35372)"
  units: "%"
  Emax: 99
- chemicalString: "C[C@H]1[C@H]2Cc3ccc(O)cc3[C@]1(CCCCN[C@@H](Cc1ccccc1)C(N)=O)CCN2CC1CC1"
  targetDesc: "μ-opioid receptor (Homo sapiens, UniProt P35372)"
  units: "%"
  Emax: 56

Input: Emax lookup needed for "COc1ccc2c(c1)[C@]1(CCNCCCn3ccnc3)CCN(C)[C@H](C2)[C@@H]1C" , thanks.
Output: 82

Input: For "C[C@H]1[C@H]2Cc3ccc(O)cc3[C@]1(CCN1CCC(N(C3CC3)S(=O)(=O)c3ccc(Cl)cc3)CC1)CCN2C" then?
Output: 98

Input: For "COc1ccc2c(c1)[C@]1(CCOCc3ccccc3)CCN(CC3CC3)[C@H](C2)[C@@H]1C" then?
Output: 103
